pIC50: −log10 of the molar value.
pIC50, UniProt O42275, per-entry values.

{"columns": ["compound", "pIC50"],
 "data": [
  ["COc1cc2c(cc1OCc1c(F)cc(F)cc1F)C(=O)C(CC1CCN(Cc3ccccc3)CC1)C2 (centres unmarked) [Compound 8u]", 7.57],
  ["COc1cc2c(cc1OCCCl)C(=O)C(CC1CCN(Cc3ccccc3)CC1)C2 (centres unmarked) [Compound 8d]", 7.23],
  ["COc1cc2c(cc1OCc1ccc(F)cc1)C(=O)C(CC1CCN(Cc3ccccc3)CC1)C2 (centres unmarked) [Compound 8m]", 7.09],
  ["COc1cc2c(cc1OCCCCBr)C(=O)C(CC1CCN(Cc3ccccc3)CC1)C2 (centres unmarked) [Compound 8f]", 7.21],
  ["COc1cc2c(cc1OCCN)C(=O)C(CC1CCN(Cc3ccccc3)CC1)C2 (centres unmarked) [Compound 8b]", 7.68],
  ["COc1cc2c(cc1OCc1c(F)cccc1F)C(=O)C(CC1CCN(Cc3ccccc3)CC1)C2 (centres unmarked) [Compound 8s]", 7.80],
  ["COc1cc2c(cc1OCc1cc(F)ccc1F)C(=O)C(CC1CCN(Cc3ccccc3)CC1)C2 (centres unmarked) [Compound 8r]", 7.05],
  ["COc1cc2c(cc1OCc1ccc(Br)cc1F)C(=O)C(CC1CCN(Cc3ccccc3)CC1)C2 (centres unmarked) [Compound 8t]", 7.27]
]}

---

pIC50, UniProtKB P56817, per-entry values.
pIC50: −log10 of the molar value.
measured property: pIC50

{"columns": ["compound", "target entity", "recorded value"],
 "data": [
  ["COc1cc2c(cc1OCc1c(F)c(F)c(F)c(F)c1F)C(=O)C(CC1CCN(Cc3ccccc3)CC1)C2 (stereo not shown) [Compound 8v]", "UniProtKB P56817", 4.54],
  ["COc1cc2c(cc1OCc1ccccc1F)C(=O)C(CC1CCN(Cc3ccccc3)CC1)C2 (stereo not shown) [Compound 8o]", "UniProtKB P56817", 4.68],
  ["COc1cc2c(cc1OCc1ccc(C)cc1)C(=O)C(CC1CCN(Cc3ccccc3)CC1)C2 (stereo not shown) [Compound 8i]", "UniProtKB P56817", 4.24],
  ["COc1cc2c(cc1OCCCCBr)C(=O)C(CC1CCN(Cc3ccccc3)CC1)C2 (stereo not shown) [Compound 8f]", "UniProtKB P56817", 5.10],
  ["COc1cc2c(cc1OCc1c(F)cccc1F)C(=O)C(CC1CCN(Cc3ccccc3)CC1)C2 (stereo not shown) [Compound 8s]", "UniProtKB P56817", 4.52],
  ["COc1cc2c(cc1OCc1c(F)cc(F)cc1F)C(=O)C(CC1CCN(Cc3ccccc3)CC1)C2 (stereo not shown) [Compound 8u]", "UniProtKB P56817", 4.04],
  ["CCCOc1cc2c(cc1OC)CC(CC1CCN(Cc3ccccc3)CC1)C2=O (stereo not shown) [Compound 8c]", "UniProtKB P56817", 5.21]
]}

---

target entity: EfBChE (butyrylcholinesterase from equine serum) (Equus caballus)
Construct: EfBChE from equine serum (Equus ferus); from tissue; host or cells: equine serum
Sequence (P81908 whole entry): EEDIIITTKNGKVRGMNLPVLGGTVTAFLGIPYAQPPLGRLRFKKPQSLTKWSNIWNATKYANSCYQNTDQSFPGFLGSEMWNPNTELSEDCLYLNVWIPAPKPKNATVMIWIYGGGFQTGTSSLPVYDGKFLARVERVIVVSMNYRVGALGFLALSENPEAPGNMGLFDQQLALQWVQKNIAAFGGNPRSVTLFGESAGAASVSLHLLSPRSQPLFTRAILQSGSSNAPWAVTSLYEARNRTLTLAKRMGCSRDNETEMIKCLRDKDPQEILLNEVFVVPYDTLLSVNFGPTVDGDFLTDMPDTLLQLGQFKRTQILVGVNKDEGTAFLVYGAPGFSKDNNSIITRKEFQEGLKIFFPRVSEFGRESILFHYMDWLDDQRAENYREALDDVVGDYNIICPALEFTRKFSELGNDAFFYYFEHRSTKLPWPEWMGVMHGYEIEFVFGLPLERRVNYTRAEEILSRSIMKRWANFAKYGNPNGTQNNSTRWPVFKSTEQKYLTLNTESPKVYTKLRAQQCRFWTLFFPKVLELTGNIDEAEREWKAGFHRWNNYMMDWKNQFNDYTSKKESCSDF
procedure text: biochemical
Format: biochemical
condition context: ratio of IC50 values
Procedure: Experiments were performed as previously described. […] All assays were performed in duplicate or triplicate.
Below, each of the compounds is paired with its reported fold better than donepezil against EfBChE value.
measured property: fold better than donepezil against EfBChE (fold)

{"columns": ["compound", "recorded value"],
 "data": [
  ["COc1cc2c(cc1OCc1ccccc1C(F)(F)F)C(=O)C(CC1CCN(Cc3ccccc3)CC1)C2 (centres unmarked) [Compound 8p]", 8],
  ["COc1cc2c(cc1OCc1ccc(F)cc1F)C(=O)C(CC1CCN(Cc3ccccc3)CC1)C2 (centres unmarked) [Compound 8q]", 4],
  ["COc1cc2c(cc1OCc1cc(F)ccc1F)C(=O)C(CC1CCN(Cc3ccccc3)CC1)C2 (centres unmarked) [Compound 8r]", 3],
  ["COc1cc2c(cc1OCCCl)C(=O)C(CC1CCN(Cc3ccccc3)CC1)C2 (centres unmarked) [Compound 8d]", 2],
  ["COc1cc2c(cc1OCc1c(F)cc(F)cc1F)C(=O)C(CC1CCN(Cc3ccccc3)CC1)C2 (centres unmarked) [Compound 8u]", 10],
  ["COc1cc2c(cc1OCc1c(F)cccc1F)C(=O)C(CC1CCN(Cc3ccccc3)CC1)C2 (centres unmarked) [Compound 8s]", 5],
  ["COc1cc2c(cc1OCc1ccccc1)C(=O)C(CC1CCN(Cc3ccccc3)CC1)C2 (centres unmarked) [Compound 8h]", 3],
  ["COc1cc2c(cc1OCc1c(F)c(F)c(F)c(F)c1F)C(=O)C(CC1CCN(Cc3ccccc3)CC1)C2 (centres unmarked) [Compound 8v]", 18],
  ["COc1cc2c(cc1OCCN)C(=O)C(CC1CCN(Cc3ccccc3)CC1)C2 (centres unmarked) [Compound 8b]", 4],
  ["COc1cc2c(cc1OCCBr)C(=O)C(CC1CCN(Cc3ccccc3)CC1)C2 (centres unmarked) [Compound 8e]", 2],
  ["COc1cc2c(cc1OCCCN)C(=O)C(CC1CCN(Cc3ccccc3)CC1)C2 (centres unmarked) [Compound 8a]", 4]
]}

---

target entity: EeAChE (acetylcholinesterase from Electrophorus electricus) (Electrophorus electricus)

{"columns": ["compound", "target entity", "scale unit", "IC50"],
 "data": [
  ["CCCOc1cc2c(cc1OC)CC(CC1CCN(Cc3ccccc3)CC1)C2=O (centres unmarked)", "EeAChE (acetylcholinesterase from Electrophorus electricus) (Electrophorus electricus)", "nM", 140],
  ["COc1cc2c(cc1OCCCN)C(=O)C(CC1CCN(Cc3ccccc3)CC1)C2 (centres unmarked)", "EeAChE (acetylcholinesterase from Electrophorus electricus) (Electrophorus electricus)", "nM", 54],
  ["COc1cc2c(cc1OCc1ccc(Br)cc1)C(=O)C(CC1CCN(Cc3ccccc3)CC1)C2 (centres unmarked)", "EeAChE (acetylcholinesterase from Electrophorus electricus) (Electrophorus electricus)", "nM", 71],
  ["COc1cc2c(cc1OCc1ccccc1C(F)(F)F)C(=O)C(CC1CCN(Cc3ccccc3)CC1)C2 (centres unmarked)", "EeAChE (acetylcholinesterase from Electrophorus electricus) (Electrophorus electricus)", "nM", 32],
  ["COc1cc2c(cc1OCCBr)C(=O)C(CC1CCN(Cc3ccccc3)CC1)C2 (centres unmarked)", "EeAChE (acetylcholinesterase from Electrophorus electricus) (Electrophorus electricus)", "nM", 44]
]}

---

target entity: EfBChE (butyrylcholinesterase from equine serum) (Equus caballus)
Construct: EfBChE from equine serum (Equus ferus); from tissue; host or cells: equine serum
procedure text: biochemical
Type: biochemical
condition context: ratio of EfBChE to EeAChE IC50 values
Method: Experiments were performed as previously described. […] All assays were performed in duplicate or triplicate.
measured property: SI, selectivity index based on IC50 values (EeAChE vs EfBChE)

{"columns": ["compound", "recorded value"],
 "data": [
  ["COc1cc2c(cc1OCCCCCCCCCCCCBr)C(=O)C(CC1CCN(Cc3ccccc3)CC1)C2 (stereo not drawn)", 6.6],
  ["COc1cc2c(cc1OCc1c(F)cccc1F)C(=O)C(CC1CCN(Cc3ccccc3)CC1)C2 (stereo not drawn)", 28],
  ["COc1cc2c(cc1OCc1c(F)cc(F)cc1F)C(=O)C(CC1CCN(Cc3ccccc3)CC1)C2 (stereo not drawn)", 7.4],
  ["COc1cc2c(cc1OCc1ccccc1F)C(=O)C(CC1CCN(Cc3ccccc3)CC1)C2 (stereo not drawn)", 6.3],
  ["COc1cc2c(cc1OCc1ccc(F)cc1F)C(=O)C(CC1CCN(Cc3ccccc3)CC1)C2 (stereo not drawn)", 4.4],
  ["COc1cc2c(cc1OCCCCBr)C(=O)C(CC1CCN(Cc3ccccc3)CC1)C2 (stereo not drawn)", 21]
]}

---

target entity: EeAChE (acetylcholinesterase from Electrophorus electricus) (Electrophorus electricus, UniProt O42275)
Sequence (O42275 24-633): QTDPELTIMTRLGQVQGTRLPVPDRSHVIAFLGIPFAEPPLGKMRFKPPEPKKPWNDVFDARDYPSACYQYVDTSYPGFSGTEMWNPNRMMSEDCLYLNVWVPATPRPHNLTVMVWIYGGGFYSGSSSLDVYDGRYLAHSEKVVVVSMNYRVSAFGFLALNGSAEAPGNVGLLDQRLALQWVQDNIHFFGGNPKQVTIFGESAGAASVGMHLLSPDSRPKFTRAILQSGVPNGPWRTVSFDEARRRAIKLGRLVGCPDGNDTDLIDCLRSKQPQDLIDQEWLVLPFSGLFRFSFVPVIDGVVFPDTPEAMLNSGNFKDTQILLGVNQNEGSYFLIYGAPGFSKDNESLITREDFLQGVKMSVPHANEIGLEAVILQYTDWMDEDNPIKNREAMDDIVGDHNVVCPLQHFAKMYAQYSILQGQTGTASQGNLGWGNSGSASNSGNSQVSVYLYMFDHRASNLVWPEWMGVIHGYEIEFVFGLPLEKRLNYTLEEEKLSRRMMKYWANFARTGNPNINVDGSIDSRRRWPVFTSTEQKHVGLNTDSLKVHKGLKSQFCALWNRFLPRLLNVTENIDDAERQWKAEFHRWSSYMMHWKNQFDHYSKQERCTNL
procedure text: biochemical
Format: biochemical
condition context: ratio of IC50 values
For each record, check the reported fold enhanced potency against EeAChE compared to donepezil: if it is below 4 fold write criterion met, else write criterion not met.

{"columns": ["compound", "label"],
 "data": [
  ["COc1cc2c(cc1OCc1ccc(Br)cc1F)C(=O)C(CC1CCN(Cc3ccccc3)CC1)C2 (stereo not shown)", "criterion met"],
  ["COc1cc2c(cc1OCCN)C(=O)C(CC1CCN(Cc3ccccc3)CC1)C2 (stereo not shown)", "criterion not met"],
  ["COc1cc2c(cc1OCCCl)C(=O)C(CC1CCN(Cc3ccccc3)CC1)C2 (stereo not shown)", "criterion met"],
  ["COc1cc2c(cc1OCCBr)C(=O)C(CC1CCN(Cc3ccccc3)CC1)C2 (stereo not shown)", "criterion met"]
]}

---

Below, each of the molecules is paired with its reported IC50 value.
target entity: BACE1 (Homo sapiens, UniProt P56817)
Sequence (P56817 46-457): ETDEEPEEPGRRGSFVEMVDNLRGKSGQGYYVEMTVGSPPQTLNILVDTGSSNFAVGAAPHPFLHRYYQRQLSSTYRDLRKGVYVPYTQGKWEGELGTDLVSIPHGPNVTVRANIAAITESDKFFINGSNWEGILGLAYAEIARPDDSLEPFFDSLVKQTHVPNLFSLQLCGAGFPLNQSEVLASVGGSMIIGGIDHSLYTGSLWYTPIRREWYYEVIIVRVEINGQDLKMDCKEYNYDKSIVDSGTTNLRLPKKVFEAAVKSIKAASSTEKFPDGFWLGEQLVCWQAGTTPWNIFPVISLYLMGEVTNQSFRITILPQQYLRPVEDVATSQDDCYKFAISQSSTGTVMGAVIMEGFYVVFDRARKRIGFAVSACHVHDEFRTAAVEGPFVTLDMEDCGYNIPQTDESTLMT

{"columns": ["molecule", "IC50 [µM]"],
 "data": [
  ["COc1cc2c(cc1OCc1ccc(F)cc1F)C(=O)C(CC1CCN(Cc3ccccc3)CC1)C2 (centres unmarked) [Compound 8q]", 37],
  ["COc1cc2c(cc1OCCCN)C(=O)C(CC1CCN(Cc3ccccc3)CC1)C2 (centres unmarked) [Compound 8a]", 95],
  ["COc1cc2c(cc1OCc1ccccc1)C(=O)C(CC1CCN(Cc3ccccc3)CC1)C2 (centres unmarked) [Compound 8h]", 58],
  ["COc1cc2c(cc1OCc1cccc(F)c1)C(=O)C(CC1CCN(Cc3ccccc3)CC1)C2 (centres unmarked) [Compound 8n]", 12],
  ["COc1cc2c(cc1OCc1ccc(Br)cc1F)C(=O)C(CC1CCN(Cc3ccccc3)CC1)C2 (centres unmarked) [Compound 8t]", 169]
]}
